Target: PHD2 enzyme (residues 181-417) (Homo sapiens (Human), UniProt Q9GZT9)
Sequence (Q9GZT9 181-417): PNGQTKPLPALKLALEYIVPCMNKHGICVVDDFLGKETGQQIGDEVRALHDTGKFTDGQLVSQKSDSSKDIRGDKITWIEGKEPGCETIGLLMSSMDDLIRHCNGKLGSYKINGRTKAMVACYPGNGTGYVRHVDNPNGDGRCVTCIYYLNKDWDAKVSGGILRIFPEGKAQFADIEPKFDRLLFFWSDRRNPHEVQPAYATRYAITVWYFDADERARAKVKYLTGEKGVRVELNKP
Experiment: Inhibition of PHD enzyme (LC/MS peptide hydroxylation assay)
Type: biochemical
Conditions: PHD2 (residues 181-417) 5 nM, 60 min pre-incubation; -log(IC50), IC50 molar
outcome.measure: PHD Inhibition (pIC50)

{"molecule": "N#Cc1ccc(-c2cnn(-c3ccc(C(=O)NC4CCNCC4)cn3)c2O)cc1", "outcome.measure": "PHD Inhibition (pIC50)", "measurement": 7.8}
{"molecule": "COCC(C)CNC(=O)c1ccc(-n2ncc(-c3ccnc(OC)c3)c2O)nc1 (stereo not shown)", "outcome.measure": "PHD Inhibition (pIC50)", "measurement": 7.9}
{"molecule": "CC(NC(=O)c1ccc(-n2ncc(-c3ccc(C#N)cc3)c2O)nc1)C1CC1 (stereo in doubt)", "outcome.measure": "PHD Inhibition (pIC50)", "measurement": 7.17}
{"molecule": "COc1cc(-c2cnn(-c3ccc(C(=O)NCCC4CCCCO4)cn3)c2O)ccn1 (stereo not shown)", "outcome.measure": "PHD Inhibition (pIC50)", "measurement": 8.3}
{"molecule": "CO[C@H]1CC[C@@H](NC(=O)c2ccc(-n3ncc(-c4ccc(C#N)cc4F)c3O)nc2)CC1", "outcome.measure": "PHD Inhibition (pIC50)", "measurement": 8.21}
{"molecule": "Cc1c(-c2cnn(-c3ccc(C(=O)N4CC[C@H](N(C)C)C4)cn3)c2O)ccc(C#N)c1F", "outcome.measure": "PHD Inhibition (pIC50)", "measurement": 8.35}
{"molecule": "O=C(NCc1ccccc1)c1ccc(-n2ncc(-n3ccc(=O)cc3)c2O)nc1", "outcome.measure": "PHD Inhibition (pIC50)", "measurement": 7.19}
{"molecule": "Cc1cc(C#N)ccc1-c1cnn(-c2ccc(C(=O)NC3(C)CC3)cn2)c1O", "outcome.measure": "PHD Inhibition (pIC50)", "measurement": 7.19}
{"molecule": "COC1CN(C(=O)c2ccc(-n3ncc(-c4ccc(C#N)cc4C)c3O)nc2)C1", "outcome.measure": "PHD Inhibition (pIC50)", "measurement": 8.1}
{"molecule": "COC(C)CCNC(=O)c1ccc(-n2ncc(-c3ccc(C#N)cc3)c2O)nc1 (stereo not shown)", "outcome.measure": "PHD Inhibition (pIC50)", "measurement": 8.3}
{"molecule": "CCC(CC)N1CCN(C(=O)c2ccc(-n3ncc(-c4ccc(C#N)cc4C)c3O)nc2)CC1", "outcome.measure": "PHD Inhibition (pIC50)", "measurement": 7.701}
{"molecule": "COCCCNC(=O)c1ccc(-n2ncc(-c3ccc(C#N)cc3COC)c2O)nc1", "outcome.measure": "PHD Inhibition (pIC50)", "measurement": 8.07}
{"molecule": "COCC[C@H](C)NC(=O)c1ccc(-n2ncc(-c3ccc(C#N)cc3C)c2O)nc1", "outcome.measure": "PHD Inhibition (pIC50)", "measurement": 8.60}
{"molecule": "COCCC(C)NC(=O)c1ccc(-n2ncc(-c3ccc(C#N)cc3C)c2O)nc1 (stereo not shown)", "outcome.measure": "PHD Inhibition (pIC50)", "measurement": 7.22}
{"molecule": "Cc1cc(C#N)ccc1-c1cnn(-c2ccc(C(=O)N3CCC[C@@H]3CN3CCCC3)cn2)c1O", "outcome.measure": "PHD Inhibition (pIC50)", "measurement": 7.80}
{"molecule": "COc1cc(-c2cnn(-c3ccc(C(=O)NCCCCO)cn3)c2O)ccn1", "outcome.measure": "PHD Inhibition (pIC50)", "measurement": 7.01}
{"molecule": "N#Cc1ccc(-c2cnn(-c3ccc(C(=O)N4CCOCC4)cn3)c2O)cc1", "outcome.measure": "PHD Inhibition (pIC50)", "measurement": 7.16}
{"molecule": "COCCCCNC(=O)c1ccc(-n2ncc(-c3ccc(C#N)cc3OC)c2O)nc1", "outcome.measure": "PHD Inhibition (pIC50)", "measurement": 6.85}
{"molecule": "C[C@@H](NC(=O)c1ccc(-n2ncc(-c3ccc(C#N)cc3)c2O)nc1)C1CCOCC1", "outcome.measure": "PHD Inhibition (pIC50)", "measurement": 7.33}
{"molecule": "Cc1cc(C#N)c(F)cc1-c1cnn(-c2ccc(C(=O)N3CCN(C)CC3)cn2)c1O", "outcome.measure": "PHD Inhibition (pIC50)", "measurement": 8.59}
{"molecule": "CCCNC(=O)c1ccc(-n2ncc(-c3ccc(C#N)cc3C)c2O)nc1", "outcome.measure": "PHD Inhibition (pIC50)", "measurement": 7.14}
{"molecule": "CCN1CCN(C(=O)c2ccc(-n3ncc(-c4cc(F)c(C#N)cc4C)c3O)nc2)CC1", "outcome.measure": "PHD Inhibition (pIC50)", "measurement": 8.29}
